# Substrate: pNPB
# measurement_notes: Proxy for plastic degradation [Absorbance @ 430nm] (min⁻¹)
# test_settings: pH 8; part of the chain shown
measured_parameter: Proxy for plastic degradation
Answer as a number with no unit attached.

Here are 5 sequences together with their reported answers.
- sequence: "ESETTAAAVSSRYYEETGPHAVTVEQGGPDHTLYYPSDLGAGGT"
  numeric_readout: 32300
- sequence: "QDNSDGRYRPEGRTFARGAANLFDDRLFEARTYVTGTDVA"
  numeric_readout: 49500
- sequence: "AGFEKGPDPTTASVTADRGSYDIAQVDVPKGSGTGFADGTIYY"
  numeric_readout: 16200
- sequence: "CFGGGDPDPSPEGQALGVPGDFEICSYEANLENDGYASARMTYPCDLS"
  numeric_readout: 24400
- sequence: "DPWDAPGPYATAVQIGAVNTLYYPRDIASSPRRHPVIVWGNGT"
  numeric_readout: 21900

Please give the measured Proxy for plastic degradation for this sequence: `VTKGPDPSAAEVAKVTGSYAVTETKVDDAASTKFGPATV`
31400

Quick one: Proxy for plastic degradation for `GDPPAVRTVPAAAAAPVDWSKTGPHQVKVDKADAHTIYRPSDLG` ?
44800

// query Proxy for plastic degradation value for entry `TPEFKPQPGPLSIKSAAAISFRVEDQAKDLQIRVTYPDGPGPWP`
16800

* * *

# Substrate: PET
# measurement_notes: Proxy for plastic degradation [Released monomer concentration (HPLC/LC-MS) (MHET+TPA)]
# test_settings: pH 9; 60 °C; part of the chain shown
List of Proxy for plastic degradation values.

- sequence: "LDSPYQRGPDPTEASVKAIAGPFAVDQVKATGHTGFGSGTIFYP"
  Proxy for plastic degradation: "19.7 µM"
- sequence: "QTNPYARGPNPTAASLEASAGPFTVRSFTVSRPSGYGAGTVYY"
  Proxy for plastic degradation: "17.4 µM"
- sequence: "DPWDAPGPYATAVQIGAVNTLYYPRDIASSPRRHPVIVWGNGT"
  Proxy for plastic degradation: "14.1 µM"
- sequence: "AGFEKGPDPTTASVTADRGSYDIAQVDVPKGSGTGFADGTIYY"
  Proxy for plastic degradation: "15 µM"
- sequence: "ESETTAAAVSSRYYEETGPHAVTVEQGGPDHTLYYPSDLGAGGT"
  Proxy for plastic degradation: "15.3 µM"

Moving on to another sequence below.
GET /values?readout=Proxy for plastic degradation&item= `DEIGQAPTAANITGDGSFSTSSSAIFGQSGFGGGTAYYPNTAGKYPVVAF`
167 µM

* * *

# Substrate: PET
# measurement_notes: Proxy for plastic degradation [Released monomer concentration (HPLC/LC-MS) (MHET+TPA)]
# test_settings: pH 9; 55 °C; part of the chain shown
Label rule, in plain words: Proxy for plastic degradation of 20 µM and up is true, under 20 µM is false.

Illustrative cases are given below, each with its answer.
- sequence: "QDNSDGRYRPEGRTFARGAANLFDDRLFEARTYVTGTDVA"
  group_label: "false"
- sequence: "DPWDAPGPYATAVQIGAVNTLYYPRDIASSPRRHPVIVWGNGT"
  group_label: "false"
- sequence: "QTNPYARGPNPTAASLEASAGPFTVRSFTVSRPSGYGAGTVYY"
  group_label: "true"

Item `LDSPYQRGPDPTEASVKAIAGPFAVDQVKATGHTGFGSGTIFYP` with Proxy for plastic degradation of 20 µM or above?
true

Kindly determine if Proxy for plastic degradation recorded for `TPEFKPQPGPLSIKSAAAISFRVEDQAKDLQIRVTYPDGPGPWP` is above or exactly 20 µM.
false
